- test method notes: Inhibition of cAMP phosphodiesterase preparation from rabbit lung at a substrate concentration of 0.14 uM
property name: I50 (µM)
Kindly provide the numeric value in µM only, without the unit symbol.

See these solved cases before continuing.
molecule	property name	endpoint value
CCCCCSc1nc2c(N)ncnc2n1[C@@H]1O[C@@H]2COP(=O)(O)O[C@H]2[C@H]1O	I50	15
CCN(CC)c1ncnc2c1nc(Cl)n2[C@@H]1O[C@@H]2COP(=O)(O)O[C@H]2[C@H]1O	I50	18
CCNc1ncnc2c1ncn2[C@@H]1O[C@@H]2COP(=O)(O)O[C@H]2[C@H]1O	I50	400
Nc1ncnc2c1nc(Cl)n2[C@@H]1O[C@@H]2COP(=O)(O)O[C@H]2[C@H]1O	I50	59
CCCNc1ncnc2c1nc(SCc1ccccc1)n2[C@@H]1O[C@@H]2COP(=O)(O)O[C@H]2[C@H]1O	I50	3.6

Query: Suppose we examine the compound `O=P1(O)OC[C@H]2O[C@@H](n3c(Sc4ccc(Cl)cc4)nc4c(Nc5ccccc5)ncnc43)[C@H](O)[C@@H]2O1` ; what I50 value has been reported?
Reply: 36

Query: Suppose we examine the compound `CCN(CC)c1ncnc2c1nc(Sc1ccc(Cl)cc1)n2[C@@H]1O[C@@H]2COP(=O)(O)O[C@H]2[C@H]1O` ; what I50 value has been reported?
Reply: 3.5

Query: Suppose we examine the compound `Nc1ncnc2c1nc(SCc1ccccc1)n2[C@@H]1O[C@@H]2COP(=O)(O)O[C@H]2[C@H]1O` ; what I50 value has been reported?
Reply: 53

---

# maps each entry to its log10(I50)
- test method notes: Inhibition of cAMP phosphodiesterase preparation from rabbit lung at a substrate concentration of 0.14 uM
Values below are the log10 of the recorded I50, with µM as the unit.

Query: Suppose we examine the compound `COc1ccc(Sc2nc3c(N)ncnc3n2[C@@H]2O[C@@H]3COP(=O)(O)O[C@H]3[C@H]2O)cc1` ; what log10(I50) value has been reported?
Reply: 1.68

Query: Suppose we examine the compound `Nc1ncnc2c1nc(SCC(=O)[O-])n2[C@@H]1O[C@@H]2COP(=O)(O)O[C@H]2[C@H]1O.[Na+]` ; what log10(I50) value has been reported?
Reply: 2.60

Query: Suppose we examine the compound `CCCSc1nc2c(N)ncnc2n1[C@@H]1O[C@@H]2COP(=O)(O)O[C@H]2[C@H]1O` ; what log10(I50) value has been reported?
Reply: 1.57

Query: Suppose we examine the compound `CCN(CC)c1nc2c(Cl)ncnc2n1[C@@H]1O[C@@H]2COP(=O)(O)O[C@H]2[C@H]1O` ; what log10(I50) value has been reported?
Reply: 1.90

Query: Suppose we examine the compound `Nc1ncnc2c1nc(S)n2[C@@H]1O[C@@H]2COP(=O)(O)O[C@H]2[C@H]1O` ; what log10(I50) value has been reported?
Reply: 1.30

---

- test method notes: Inhibition of cAMP phosphodiesterase preparation from rabbit lung at a substrate concentration of 0.14 uM
Decide using I50: a value greater than or equal to 30 µM is Satisfied, a smaller one is Not satisfied.

molecule	group label
O=P1(O)OC[C@H]2O[C@@H](n3c(SCc4ccccc4)nc4c(N5CCCC5)ncnc43)[C@H](O)[C@@H]2O1	Not satisfied
Nc1ncnc2c1nc(SCc1cccnc1)n2[C@@H]1O[C@@H]2COP(=O)(O)O[C@H]2[C@H]1O	Satisfied
CCN(CC)c1ncnc2c1nc(SCc1ccccc1)n2[C@@H]1O[C@@H]2COP(=O)(O)O[C@H]2[C@H]1O	Not satisfied
O=P1(O)OC[C@H]2O[C@@H](n3cnc4c(SCc5ccccc5)ncnc43)[C@H](O)[C@@H]2O1	Not satisfied
Nc1nc2c(=S)[nH]cnc2n1[C@@H]1O[C@@H]2COP(=O)(O)O[C@H]2[C@H]1O	Satisfied

Query: Is the recorded value of I50 equal to or greater than 30 µM for this compound? `Nc1ncnc2c1nc(SCc1cccc([N+](=O)[O-])c1)n2[C@@H]1O[C@@H]2COP(=O)(O)O[C@H]2[C@H]1O`
Reply: Not satisfied

Query: Is the recorded value of I50 equal to or greater than 30 µM for this compound? `O=P1(O)OC[C@H]2O[C@@H](n3c(Sc4ccc(Cl)cc4)nc4c(N5CCCCC5)ncnc43)[C@H](O)[C@@H]2O1`
Reply: Not satisfied

Query: Is the recorded value of I50 equal to or greater than 30 µM for this compound? `Nc1ncnc2c1nc(Sc1ccc(Br)cc1)n2[C@@H]1O[C@@H]2COP(=O)(O)O[C@H]2[C@H]1O`
Reply: Satisfied

Query: Is the recorded value of I50 equal to or greater than 30 µM for this compound? `CC(C)CCNc1ncnc2c1nc(SCc1ccccc1)n2[C@@H]1O[C@@H]2COP(=O)(O)O[C@H]2[C@H]1O`
Reply: Not satisfied

---

- test method notes: Inhibition of cAMP phosphodiesterase preparation from rabbit lung at a substrate concentration of 0.14 uM
Label criterion met when I50 is strictly below 30 µM; otherwise label criterion not met.

Query: Consider the compound `CC(C)CNc1ncnc2c1nc(Sc1ccc(Cl)cc1)n2[C@@H]1O[C@@H]2COP(=O)(O)O[C@H]2[C@H]1O` . Is its I50 strictly less than 30 µM?
Reply: criterion met

Query: Consider the compound `Cc1ccccc1Sc1nc2c(N)ncnc2n1[C@@H]1O[C@@H]2COP(=O)(O)O[C@H]2[C@H]1O` . Is its I50 strictly less than 30 µM?
Reply: criterion met

Query: Consider the compound `O=P1(O)OC[C@H]2O[C@@H](n3c(SCc4ccccc4)nc4c(SCc5ccccc5)ncnc43)[C@H](O)[C@@H]2O1` . Is its I50 strictly less than 30 µM?
Reply: criterion met

Query: Consider the compound `C=CCSc1nc2c(N)ncnc2n1[C@@H]1O[C@@H]2COP(=O)(O)O[C@H]2[C@H]1O` . Is its I50 strictly less than 30 µM?
Reply: criterion met

Query: Consider the compound `CNc1ncnc2c1nc(SCc1ccccc1)n2[C@@H]1O[C@@H]2COP(=O)(O)O[C@H]2[C@H]1O` . Is its I50 strictly less than 30 µM?
Reply: criterion not met

Query: Consider the compound `O=P1(O)OC[C@H]2O[C@@H](n3cnc4c(NCc5ccccc5)ncnc43)[C@H](O)[C@@H]2O1` . Is its I50 strictly less than 30 µM?
Reply: criterion not met

Query: Consider the compound `Nc1ncnc2c1nc(SC1CCCCC1)n2[C@@H]1O[C@@H]2COP(=O)(O)O[C@H]2[C@H]1O` . Is its I50 strictly less than 30 µM?
Reply: criterion met

Query: Consider the compound `Nc1ncnc2c1nc(SCc1ccc([N+](=O)[O-])cc1)n2[C@@H]1O[C@@H]2COP(=O)(O)O[C@H]2[C@H]1O` . Is its I50 strictly less than 30 µM?
Reply: criterion met

Query: Consider the compound `CCN(CC)c1ncnc2c1nc(N(CC)CC)n2[C@@H]1O[C@@H]2COP(=O)(O)O[C@H]2[C@H]1O` . Is its I50 strictly less than 30 µM?
Reply: criterion met

Query: Consider the compound `CSc1ncnc2c1nc(SC)n2[C@@H]1O[C@@H]2COP(=O)(O)O[C@H]2[C@H]1O` . Is its I50 strictly less than 30 µM?
Reply: criterion not met

Query: Consider the compound `Nc1ncnc2c1nc(SCc1ccc(Cl)cc1)n2[C@@H]1O[C@@H]2COP(=O)(O)O[C@H]2[C@H]1O` . Is its I50 strictly less than 30 µM?
Reply: criterion met

Query: Consider the compound `O=P1(O)OC[C@H]2O[C@@H](n3c(SCc4ccccc4)nc4c(N5CCCCC5)ncnc43)[C@H](O)[C@@H]2O1` . Is its I50 strictly less than 30 µM?
Reply: criterion met

Query: Consider the compound `CCCCNc1ncnc2c1ncn2[C@@H]1O[C@@H]2COP(=O)(O)O[C@H]2[C@H]1O` . Is its I50 strictly less than 30 µM?
Reply: criterion not met

Query: Consider the compound `CSc1nc2c(N)ncnc2n1[C@@H]1O[C@@H]2COP(=O)(O)O[C@H]2[C@H]1O` . Is its I50 strictly less than 30 µM?
Reply: criterion not met

Query: Consider the compound `Nc1ncnc2c1nc(Sc1ccccc1)n2[C@@H]1O[C@@H]2COP(=O)(O)O[C@H]2[C@H]1O` . Is its I50 strictly less than 30 µM?
Reply: criterion not met

---

- test method notes: Inhibition of cAMP phosphodiesterase preparation from rabbit lung at a substrate concentration of 0.14 uM
# maps each entry to its I50
Kindly provide the numeric value in µM only, without the unit symbol.

Query: Suppose we examine the compound `Nc1ncnc2c1nc(N)n2[C@@H]1O[C@@H]2COP(=O)(O)O[C@H]2[C@H]1O` ; what I50 value has been reported?
Reply: 83

Query: Suppose we examine the compound `Nc1ncnc2c1nc(SCCO)n2[C@@H]1O[C@@H]2COP(=O)(O)O[C@H]2[C@H]1O` ; what I50 value has been reported?
Reply: 20

Query: Suppose we examine the compound `O=P1(O)OC[C@H]2O[C@@H](n3c(SCc4ccccc4)nc4c(NCc5ccccc5)ncnc43)[C@H](O)[C@@H]2O1` ; what I50 value has been reported?
Reply: 29

Query: Suppose we examine the compound `CCN(CC)c1ncnc2c1ncn2[C@@H]1O[C@@H]2COP(=O)(O)O[C@H]2[C@H]1O` ; what I50 value has been reported?
Reply: 67
